Give furin cleavage Z-score for every item shown.
- ASSAY SYSTEM: furin, P09958;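 note: purified furin at 1:10 enzyme:substrate in 50 mM HEPES pH 7.5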
- Sequence (P09958 whole entry): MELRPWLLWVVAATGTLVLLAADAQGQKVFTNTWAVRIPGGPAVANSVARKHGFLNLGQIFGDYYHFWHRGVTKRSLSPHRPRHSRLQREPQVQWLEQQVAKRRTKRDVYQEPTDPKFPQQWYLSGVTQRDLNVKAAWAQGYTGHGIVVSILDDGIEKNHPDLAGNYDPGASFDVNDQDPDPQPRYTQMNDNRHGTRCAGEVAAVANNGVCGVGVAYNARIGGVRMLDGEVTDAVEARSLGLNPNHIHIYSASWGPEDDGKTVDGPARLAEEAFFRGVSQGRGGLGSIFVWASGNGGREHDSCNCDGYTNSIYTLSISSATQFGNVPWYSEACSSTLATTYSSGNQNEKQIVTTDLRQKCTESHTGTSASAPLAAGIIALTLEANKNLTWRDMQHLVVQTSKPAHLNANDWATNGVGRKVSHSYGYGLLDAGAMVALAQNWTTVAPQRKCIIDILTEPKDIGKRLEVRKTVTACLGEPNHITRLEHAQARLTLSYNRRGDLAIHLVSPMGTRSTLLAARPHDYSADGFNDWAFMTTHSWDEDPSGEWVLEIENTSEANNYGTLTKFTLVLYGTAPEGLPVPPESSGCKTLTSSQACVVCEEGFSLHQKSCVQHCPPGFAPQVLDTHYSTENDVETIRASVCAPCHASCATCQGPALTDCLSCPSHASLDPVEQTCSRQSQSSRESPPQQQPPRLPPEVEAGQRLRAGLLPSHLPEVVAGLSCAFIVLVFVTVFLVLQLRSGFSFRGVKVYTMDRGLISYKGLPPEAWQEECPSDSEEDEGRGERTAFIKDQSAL
- PROCEDURE TEXT: furin cleavage Z-score vs untreated control; higher = more cleavage, active = 3.5 or more, inactive = 1 or less, 8 variable residues between constant flanks
- TEST PARAMETERS: 15 min
The other results are listed elsewhere or left out. No count for the full screen is at hand.
Give bare numbers.

Documented furin cleavage Z-score of CARVTRYSNIAGNASASA [FS-2198] : -0.0709

Entry under test: CAAGTRTIASAGNASASA [HC703] . Its furin cleavage Z-score was 0.675

// field: furin cleavage Z-score; key: CARFRRSRRTAGNASASA [FS-2666] ; value = 8.92

The recorded furin cleavage Z-score for CAKNGRPLRSAGNASASA [FS-341] is 2.59

response.value for CAMILMTHFFAGNASASA [HC1582] (field: furin cleavage Z-score) = -0.697

For each of the items listed, what is its furin cleavage Z-score?
1. CADHEVVTSTAGNASASA [HC2295]
2. CAEHVRKLRSAGNASASA [FS-990]
3. CAEVVTSTWTAGNASASA [HC2258]
4. CALDGVRLHRAGNASASA [HC1223]
5. CAMEECSQHTAGNASASA [HC1778]

Result:
1. -1.49
2. 9.45
3. -0.469
4. 0.461
5. 1.17
